Cited source: patent US10035819B2

Please respond with reported EC50 for every item in the list.
- TARGET_UNDER_TEST: PPARδ (Homo sapiens)
- Construct: expressed in transfected cells; host or cells: PathHunter NHR cell lines
- Sequence (Q03181 whole entry): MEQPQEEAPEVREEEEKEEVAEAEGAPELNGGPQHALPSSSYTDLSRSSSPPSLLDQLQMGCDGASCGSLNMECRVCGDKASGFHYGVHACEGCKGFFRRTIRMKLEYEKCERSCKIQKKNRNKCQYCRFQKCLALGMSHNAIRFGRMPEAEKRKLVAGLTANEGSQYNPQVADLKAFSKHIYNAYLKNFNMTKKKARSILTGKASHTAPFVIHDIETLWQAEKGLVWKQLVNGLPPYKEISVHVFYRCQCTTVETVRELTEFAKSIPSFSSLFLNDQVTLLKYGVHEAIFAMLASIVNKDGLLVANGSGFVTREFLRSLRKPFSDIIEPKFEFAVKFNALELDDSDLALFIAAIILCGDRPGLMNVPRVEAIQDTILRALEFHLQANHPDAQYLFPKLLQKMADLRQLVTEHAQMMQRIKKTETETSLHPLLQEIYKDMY
- MEASUREMENT_NOTES: Nuclear Hormone Receptor (NHR) protein interaction assay (PathHunter), agonist format
- Assay type: cell-based
- Method: • Cell Handling: PathHunter NHR cell lines were expanded from freezer stocks according to standard procedures. Cells were seeded in a total volume of 20 μL into white walled, 384-well microplates and incubated at 37° C. for the appropriate time prior to testing. […] Microplates were read following signal generation with a PerkinElmer Envision™ instrument for chemiluminescent signal detection. • Data Analysis: Compound activity was analyzed using CBIS data analysis suite (ChemInnovation, CA). […]
Write down the value, and be sure its unit follows.

[
  {
    "MOLECULE": "CC(C)N(Cc1ccccc1OCCCCCC(=O)O)C(=O)c1ccc(-c2cccs2)cc1",
    "REPORTED_RESULT": "0.0084 µM"
  },
  {
    "MOLECULE": "CCC(C)N(Cc1ccccc1OCCCCCC(=O)O)C(=O)c1ccc(-c2ccco2)cc1 (stereo not drawn)",
    "REPORTED_RESULT": "0.0175 µM"
  }
]

[ask] Would you mind telling me what EC50 value was observed for CC(C)N(Cc1ccccc1OCCCCCC(=O)O)C(=O)c1ccc(-c2ccccc2)cc1 ?
[reply] 0.0259 µM
